tested on: Acinetobacter baumannii; assay: Antimicrobial activity against Acinetobacter baumannii CIP70.10 harboring beta-lactamase RTG4 gene by […]; type: functional
Here, each record is paired with measured MIC data.
OBSERVABLE: MIC

| SMILES_REPR | RESULT |
| --- | --- |
| CC1(C)S[C@@H]2[C@H](NC(=O)[C@H](N)c3ccc(O)cc3)C(=O)N2[C@H]1C(=O)O | > 256 µg/mL |
| CCN1CCN(C(=O)N[C@@H](C(=O)N[C@@H]2C(=O)N3[C@@H]2SC(C)(C)[C@@H]3C(=O)O)c2ccccc2)C(=O)C1=O | > 256 µg/mL |
| CC1(C)S[C@@H]2[C@H](NC(=O)[C@H](C(=O)O)c3ccsc3)C(=O)N2[C@H]1C(=O)O | > 256 µg/mL |

The reported numbers originate from ChEMBL document CHEMBL1649493.
